Test system: SK-MEL-28 melanoma
Experiment: NCI tumour cell line growth inhibition, 48 h
Decide using TGI: a value greater than or equal to 30 µM is Yes, a smaller one is No.

Check the entry `COc1ccc2c(c1)CCN1C3=C(CCC3)C(=O)C[C@@H]21` : does TGI equal or exceed 30 µM?
Yes

Check the entry `FC(F)(F)c1[nH]ncc1-c1nc2ccc3[nH]ncc3c2c2c1CCCC2` : does TGI equal or exceed 30 µM?
No

Check the entry `CN=C(NC)N(C)c1nc(=[N+](C)C)ss1` : does TGI equal or exceed 30 µM?
Yes

Check the entry `Cc1cc(NS(=O)(=O)c2ccc(Nc3c4ccccc4nc4c(C(=O)Nc5ccc(S(=O)(=O)N=C(N)N)cc5)ccc(Cl)c34)cc2)no1` : does TGI equal or exceed 30 µM?
Yes

Check the entry `O=C(c1ccccc1)c1nn(-c2ccccc2)c2nc3nc(-c4ccccc4)cc(=O)n3nc12` : does TGI equal or exceed 30 µM?
Yes

* * *

System: RXF 393 renal
Assay: NCI tumour cell line growth inhibition, 48 h
Where a SMILES comes first, the peptide text is derived from it. The star is where a group is joined. Boc = CC(C)(C)OC(=O)*; OBn = c1ccc(CO*)cc1
measure: TGI

Worked examples follow.
- molecule: "COC(=O)c1ccc(C)cc1CC1Cc2c(C)cccc2C1=O (centres undefined)"
  test-value: "34.3 µM"
- molecule: "COc1ccc2[nH]c(O)c(/C=c3/ccc4c(c3)N=C(c3ccc(F)cc3)N=4)c2c1"
  test-value: "4.06 µM"
- molecule: "CC(C)CC(NC(=O)C(Cc1ccccc1)NC(=O)C(Cc1ccccc1)NC(=O)OC(C)(C)C)C(=O)OCc1ccccc1 (stereo not drawn) (Boc-Phe-Phe-Leu-OBn; configuration not given here)"
  test-value: "> 100 µM"

From here, focus on the item given below.
TGI reported for this molecule `Cc1nnc([C@@]2(C)CC[C@H]3[C@@H](CCC4=CC(=O)CC[C@@]43C)[C@@H]2CC#N)o1` : > 100 µM

* * *

Tested on: DU-145 prostate
Test: NCI tumour cell line growth inhibition, 48 h
Each record here notes measured TGI.
// note: answer is a bare numeric in µM

Worked examples follow.
- cpd-smiles: "Oc1c(CNCCNCc2cc(Cl)cc(Cc3ccccc3)c2O)cc(Cl)cc1Cc1ccccc1"
  test-value: 57.1
- cpd-smiles: "CCN(CC)CCNC(=O)c1nn(-c2ccc(Cl)cc2)c2c1CCc1cc(OC)ccc1-2"
  test-value: 29.1
- cpd-smiles: "FC(F)(F)c1[nH]ncc1-c1nc2ccc3[nH]ncc3c2c2c1CCCC2"
  test-value: 10.9

From here, focus on the item given below.
TGI reported for this molecule `C=CCn1c(-c2ccc(Cl)cc2Cl)csc1=Nc1c(C)n(C)n(-c2ccccc2)c1=O` : 27.3

* * *

Each record here notes measured TGI.
System: KM20L2 colon
Assay: NCI tumour cell line growth inhibition, 48 h
// note: answer is a bare numeric in µM

- cpd-smiles: "CCCCCCCCCCCCCCNCC(OCC)OCC"
  TGI / µM: 24.9

From here, focus on the item given below.
TGI reported for this molecule `O=C1N[C@H]2[C@H](O)[C@H](O)[C@@H](O)[C@H](O)[C@@H]2c2cc3c(c(O)c21)OCO3` : 3.06

* * *

Test system: BT-549 breast
Assay: NCI tumour cell line growth inhibition, 48 h; in the data active = GI50 below about 0.43 µM; inactive = the rest
Respond only with the outcome that fits, drawn from TRUE for active, FALSE for inactive

Assay outcome for `COc1ccc2nccc(/C=C/c3ccnc4ccc(OC)cc34)c2c1` : what was it?
FALSE

Assay outcome for `Oc1ccccc1C=Nc1ccccc1N=Cc1ccccc1O.[Cu+2]` : what was it?
FALSE

Assay outcome for `Cn1c2ccccc2c2nnc(NNCc3ccccn3)nc21` : what was it?
FALSE

Assay outcome for `Oc1c(CNCCNCc2cc(Cl)cc(Cc3ccccc3)c2O)cc(Cl)cc1Cc1ccccc1` : what was it?
FALSE

Assay outcome for `COC(=O)/C(=C\c1c(-c2ccccc2)[nH]c2ccccc12)S(C)(=O)=O` : what was it?
FALSE

Assay outcome for `CCN(CC)c1ccc(/C=C/C=C(/C#N)C(N)=S)cc1` : what was it?
FALSE
